Provenance of the data: ChEMBL document CHEMBL5058564

# Growth Rate listing for each entry below
Tested on: HEK-293T
Experiment: Incucyte cell viability with HEK293T; note: unitless GR value; below 1 slowed growth and below 0 cell loss
Type: toxicity, cell-based
Details: human, 24 h, 10 µM, compound concentration 10 uM, replicate number 2, timepoint 24 hours
MEASUREMENT KIND: Growth Rate

COMPOUND: Cl.Cl.OCCOCCN1CCN(C(c2ccccc2)c2ccc(Cl)cc2)CC1 (stereo unspecified) [HYDROXYZINE HYDROCHLORIDE]
MEASUREMENT KIND: Growth Rate
RECORDED MEASUREMENT: 0.32
//
COMPOUND: N[C@@H](CCP(=O)(O)O)C(=O)O
MEASUREMENT KIND: Growth Rate
RECORDED MEASUREMENT: 0.78
//
COMPOUND: COc1cc2nc(N3CCN(C(=O)C4CCCO4)CC3)nc(N)c2cc1OC.Cl.O.O (stereo unspecified) [TERAZOSIN HYDROCHLORIDE]
MEASUREMENT KIND: Growth Rate
RECORDED MEASUREMENT: 0.79
//
COMPOUND: CN(CCN1CCC(OC(=O)Nc2ccccc2-c2ccccc2)CC1)C(=O)c1ccc(CN2CCC(C(N)=O)CC2)cc1 [REVEFENACIN]
MEASUREMENT KIND: Growth Rate
RECORDED MEASUREMENT: 0.78
//
COMPOUND: COc1cc(/C=C/C(=O)NCCn2c(C)cc3ccccc32)cc(OC)c1OC
MEASUREMENT KIND: Growth Rate
RECORDED MEASUREMENT: 0.76
//
COMPOUND: Br.Br.N=C(N)NCCSC(=N)N
MEASUREMENT KIND: Growth Rate
RECORDED MEASUREMENT: 0.81
//
COMPOUND: C[C@@H]1C[C@H]2[C@@H]3CCC4=CC(=O)C=C[C@]4(C)[C@@]3(F)[C@@H](O)C[C@]2(C)[C@@]1(O)C(=O)CO [DEXAMETHASONE]
MEASUREMENT KIND: Growth Rate
RECORDED MEASUREMENT: 0.99
//
COMPOUND: O=S(=O)(c1ccccc1)N(CC(F)(F)F)c1ccc(C(O)(C(F)(F)F)C(F)(F)F)cc1 [T091317]
MEASUREMENT KIND: Growth Rate
RECORDED MEASUREMENT: 0.53
//
COMPOUND: CC(C)c1c(NC(=O)Nc2ccc(Cl)cc2)c(=O)n(-c2ccccc2)n1C
MEASUREMENT KIND: Growth Rate
RECORDED MEASUREMENT: 0.96
//
COMPOUND: Cc1sc2c(c1C)C(c1ccc(Cl)cc1)=N[C@H](CC(=O)OC(C)(C)C)c1nnc(C)n1-2
MEASUREMENT KIND: Growth Rate
RECORDED MEASUREMENT: 0.86
//
COMPOUND: CN(C)C/C=C/C(=O)Nc1ccc(C(=O)N2CCCC(Nc3ncc(Cl)c(-c4c[nH]c5ccccc45)n3)C2)cc1 (stereo unspecified)
MEASUREMENT KIND: Growth Rate
RECORDED MEASUREMENT: -0.31
//
COMPOUND: CCc1nnc(NS(=O)(=O)c2ccc(NC(=S)NC(=O)/C=C/c3ccc(F)cc3)cc2)s1
MEASUREMENT KIND: Growth Rate
RECORDED MEASUREMENT: 0.73
//
COMPOUND: CN[C@@H](C)C(=O)N[C@H]1CCCC[C@H]2CC[C@@H](C(=O)N[C@@H](c3ccccc3)c3cn(CCCCc4ccc(CCCCn5cc([C@@H](NC(=O)[C@@H]6CC[C@@H]7CCCC[C@H](NC(=O)[C@H](C)NC)C(=O)N76)c6ccccc6)nn5)cc4)nn3)N2C1=O
MEASUREMENT KIND: Growth Rate
RECORDED MEASUREMENT: 0.84
//
COMPOUND: CSc1ccccc1N1CCN(CCCCCC(=O)NC2CCCc3ccccc32)CC1.Cl (stereo unspecified)
MEASUREMENT KIND: Growth Rate
RECORDED MEASUREMENT: 0.17
//
COMPOUND: Nc1cnc(N2CCc3cc(S(=O)(=O)Nc4c(F)cc(Cl)cc4F)cc(N4CCCC4=O)c32)nc1 [TP-020n]
MEASUREMENT KIND: Growth Rate
RECORDED MEASUREMENT: 0.77
//
COMPOUND: CN1[C@@H]2CC[C@H]1C[C@@H](OC(=O)C(CO)c1ccccc1)C2 (stereo partly specified) [ATROPINE]
MEASUREMENT KIND: Growth Rate
RECORDED MEASUREMENT: 0.6
